Tested on: MS2 coat protein
Experiment: apparent KD of MS2 coat protein; higher = weaker reporter binding
Settings: Eterna round: R107; input ligand: theophylline 2 mM
Recorded apparent KD of MS2 coat protein values for a group of sequences are listed next.

query_sequence	experimental_system	apparent KD of MS2 coat protein
GGAGUCGGCACGGCCGCCACUGCGGUGGUGUGACAUGAGGAUCACCCAUGUUGUCAUGCGGCCCUUAGGACCGGGUGGCGGUUCC [#1 Exclusion - Tryptophan B Attempt #22 (HarryS)]	MS2 coat protein	0.0826 µM
UAAUAAGUACCGGUCCUCAGAUCCUCAUGUCGAGGACCGGUACGGCCGCCACUCGAAACAUGAGGAUCACCCAUGUAAUAAUAAU [#06 Exclusion Tryptophan A]	MS2 coat protein	0.0443 µM
CGGCCCUCACCUGAGGAACACCCAGGUGAUACCAGCCUGGAAACAGGCCCUUGGCAGCACCAGGUCAUCAAAGAUGACCAAGCCG [TheoAX 24 #SwitchBubble #AlternativeMS2]	MS2 coat protein	0.171 µM
CAAUUUAUAUGAAGGAGCGUCGAAAAUGGGUAAACAUGAGGAUCACCCAUGUAAAGGGAACGACAGGUAGGUCGCAUAUGGAUUG [AstromonsSSArgB#10]	MS2 coat protein	0.316 µM
AGCAAGUUCGGAAGGAGCGGUACAUGAGGAUCACCCAUGUAUUCAAUCGUGAUCGGAACGUGCCAGGUAGGUCGCCGAAUGCGUC [XArg-B1]	MS2 coat protein	0.0159 µM
